# STUDY_SYSTEM: UniProt:Q9NWZ3
# ASSAY_INFO: biochemical
# STUDY_CONDITIONS: IRAK4 Biochemical Assay (1 mM ATP, 2 h) IC50 (μM), 1 mM ATP, 2 h, 100 pM IRAK4
Where a name gives a salt, the structure may show the parent alone.
I'd appreciate it if you could label each record using IC50 and these ranges: low bracket: < 0.002 µM; middle bracket: ≥ 0.002 µM and < 0.008 µM; high bracket: ≥ 0.008 µM

[[record]]
compound = "COc1cc2nc(C3CCOCC3)cn2cc1C(=O)Nc1ccn(C(F)F)n1 [Example 48]"
group = "high bracket"

[[record]]
compound = "Cc1cnc2c(NC(=O)c3cn4cc(C56CC(C)(C5)OC6(C)C)nc4nc3OC(C)C)cnn2c1 [Example 311, trifluoroacetate]"
group = "low bracket"

[[record]]
compound = "CC(C)Oc1nc2nc(C34COC(C)(C3)C4)cn2cc1C(=O)Nc1ccc2c(n1)CCC2 [Example 366, trifluoroacetate]"
group = "middle bracket"

[[record]]
compound = "CC(C)Oc1cc2nc(C34COC(C)(C3)C4)cn2cc1C(=O)Nc1cccc(C2CC2)n1 [Example 296, trifluoroacetate]"
group = "low bracket"

[[record]]
compound = "O=C(Nc1cccc(C(F)F)n1)c1cn2cc(C3CC3)nc2cc1OCC1CC2CCC1O2 (stereo not drawn) [Example 470]"
group = "low bracket"

[[record]]
compound = "CC(C)Oc1cc2nc(C34COC(C)(C3)C4)cn2cc1C(=O)Nc1ccno1 [Example 317, trifluoroacetate]"
group = "high bracket"

[[record]]
compound = "O=C(Nc1cccn(C(F)F)c1=O)c1cn2cc(C3CC3)nc2cc1OC1CC(C(F)F)C1 (stereo not drawn) [Example 461]"
group = "middle bracket"

[[record]]
compound = "CCOc1nc(C(=O)Nc2cc(F)cn(C)c2=O)cn2cc(C34CCC(C)(C3)OC4)nc12 (stereo not drawn) [Example 277, trifluoroacetate]"
group = "middle bracket"

[[record]]
compound = "COc1cccc(NC(=O)c2cn3cc(C45CC(C)(C4)OC54COC4)nc3cc2OC)n1 [Example 28]"
group = "high bracket"

[[record]]
compound = "Cc1cnc2c(NC(=O)c3cn4cc(C56CCC(C)(CC5)OC6)nc4cc3OC(C)C)cnn2c1 [Example 573]"
group = "low bracket"

[[record]]
compound = "O=C(Nc1cccc(C(F)F)n1)c1cn2cc(C3CC3)nc2cc1OCC1CC(F)(F)C1 [Example 471]"
group = "middle bracket"


====

# STUDY_SYSTEM: IRAK4 (Homo sapiens)
# Sequence (Q9NWZ3 whole entry): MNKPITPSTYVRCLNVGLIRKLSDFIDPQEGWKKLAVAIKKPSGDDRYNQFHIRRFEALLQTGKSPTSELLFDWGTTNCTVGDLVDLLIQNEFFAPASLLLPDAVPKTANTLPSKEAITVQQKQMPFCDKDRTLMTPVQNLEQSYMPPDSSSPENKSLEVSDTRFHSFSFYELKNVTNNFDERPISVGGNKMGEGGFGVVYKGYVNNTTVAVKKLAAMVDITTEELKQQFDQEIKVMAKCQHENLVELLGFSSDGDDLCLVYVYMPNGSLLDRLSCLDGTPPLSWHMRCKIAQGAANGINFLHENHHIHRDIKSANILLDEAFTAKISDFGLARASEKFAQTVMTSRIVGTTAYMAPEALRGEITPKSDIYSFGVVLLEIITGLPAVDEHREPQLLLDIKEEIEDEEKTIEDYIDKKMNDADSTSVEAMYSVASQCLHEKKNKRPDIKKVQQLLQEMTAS
# ASSAY_INFO: biochemical
pIC50: −log10 of the molar value.
QUANTITY_NAME: pIC50

[[record]]
molecule = "Cc1cnc2c(NC(=O)c3cn4cc(C56COC(C)(C5)C6)nc4cc3O[C@H](C)C3CC3)cnn2c1 (single isomer, unassigned) [Example 657]"
quantity_name = "pIC50"
value_observed = 9.05

[[record]]
molecule = "CCn1ccc(NC(=O)c2cn3cc(C45COC(C)(C4)C5)nc3cc2OC2CCC2)n1 [Example 528]"
quantity_name = "pIC50"
value_observed = 8.28

[[record]]
molecule = "COc1cccc(NC(=O)c2cn3cc(C4CC5CCC(C4)O5)nc3cc2OC(C)C)n1 (centres unmarked) [Example 94]"
quantity_name = "pIC50"
value_observed = 7.75

[[record]]
molecule = "CC(C)Oc1cc2nc(C34COC(C)(C3)C4)cn2cc1C(=O)Nc1cc(C#N)cn(C)c1=O [Example 262]"
quantity_name = "pIC50"
value_observed = 7.55

[[record]]
molecule = "CC[C@@H](C)Oc1cc2nc(C34COC(C)(C3)C4)cn2cc1C(=O)Nc1cnn2cc(C)cnc12 [Example 560]"
quantity_name = "pIC50"
value_observed = 8.92

[[record]]
molecule = "CC(C)COc1cc2nc(C3CC3)cn2cc1C(=O)Nc1cccc(C(F)F)n1 [Example 466]"
quantity_name = "pIC50"
value_observed = 8.24

[[record]]
molecule = "CCc1ncsc1NC(=O)c1cn2cc(C3CCOCC3)nc2cc1OC [Example 104]"
quantity_name = "pIC50"
value_observed = 7.32

[[record]]
molecule = "CC12CC(c3cn4cc(C(=O)Nc5cnn6cccnc56)c(OC5CC5)cc4n3)(CO1)C2 [Example 551]"
quantity_name = "pIC50"
value_observed = 8.72

[[record]]
molecule = "Cc1nc(C(=O)Nc2cccc(C(F)F)n2)cn2cc(C3CCOCC3)nc12 [Example 213]"
quantity_name = "pIC50"
value_observed = 7.22

[[record]]
molecule = "CC(C)Oc1nc2nc(C34COC(C)(C3)C4)cn2cc1C(=O)Nc1cccn(C(F)F)c1=O [Example 388]"
quantity_name = "pIC50"
value_observed = 9.70

[[record]]
molecule = "CCOc1nc(C(=O)Nc2cccc(C3CC3)n2)cn2cc(C34COC(C)(C3)C4)nc12 [Example 493]"
quantity_name = "pIC50"
value_observed = 8.49

[[record]]
molecule = "CC(C)Oc1nc2nc(C34COC(C)(C3)C4)cn2cc1C(=O)Nc1cccc2ccnn12 [Example 385]"
quantity_name = "pIC50"
value_observed = 9.40

[[record]]
molecule = "CC(C)Oc1nc2nc(C34COC(C)(C3)C4)cn2cc1C(=O)Nc1cccnc1OC(F)F [Example 389]"
quantity_name = "pIC50"
value_observed = 8.49

[[record]]
molecule = "Cc1cc(-n2ccc(NC(=O)c3cn4cc(C56COC(C)(C5)C6)nc4cc3OC3CCC3)n2)ccn1 [Example 522]"
quantity_name = "pIC50"
value_observed = 9.30

[[record]]
molecule = "COc1ncccc1NC(=O)c1cn2cc(C34CCOC(C)(C3)C4)nc2c(OC)n1 [Example 235]"
quantity_name = "pIC50"
value_observed = 8.46

[[record]]
molecule = "Cc1cccc(NC(=O)c2cn3cc(C45COC(C)(C4)C5)nc3cc2OC(C)C)n1 [Example 259]"
quantity_name = "pIC50"
value_observed = 9.30

[[record]]
molecule = "O=C(Nc1cccc(C(F)F)n1)c1cn2cc(C3CC3)nc2cc1OC1CCC1 [Example 474]"
quantity_name = "pIC50"
value_observed = 9.15

[[record]]
molecule = "C[C@@H](Oc1cc2nc(C34COC(C)(C3)C4)cn2cc1C(=O)Nc1cccc(C(F)F)n1)C1CC1 (single isomer, unassigned) [Example 655]"
quantity_name = "pIC50"
value_observed = 9.40

[[record]]
molecule = "COc1cc2nc(C3CCOCC3)cn2cc1C(=O)Nc1cccnc1O [Example 189]"
quantity_name = "pIC50"
value_observed = 7.78

[[record]]
molecule = "CC(C)Oc1cc2nc(C34CCC(C3)OC4)cn2cc1C(=O)Nc1cnn2cccnc12 (centres unmarked) [Example 416]"
quantity_name = "pIC50"
value_observed = 9.22

[[record]]
molecule = "Cn1ccc(NC(=O)c2cn3cc(C45CCC(C)(C4)OC5)nc3cc2OC2CCC2)n1 (centres unmarked) [Example 561]"
quantity_name = "pIC50"
value_observed = 8.85

[[record]]
molecule = "CC(C)Oc1cc2nc(C34CCC(C)(C3)OC4)cn2cc1C(=O)Nc1nccs1 (centres unmarked) [Example 512]"
quantity_name = "pIC50"
value_observed = 8.05

[[record]]
molecule = "CC(C)Oc1cc2nc(C34CCC(C)(C3)OC4)cn2cc1C(=O)Nc1cccn(C)c1=O (centres unmarked) [Example 505]"
quantity_name = "pIC50"
value_observed = 9.30

[[record]]
molecule = "CC(C)Oc1cc2nc(C34CCC(C)(C3)OC4)cn2cc1C(=O)Nc1ccccn1 (centres unmarked) [Example 518]"
quantity_name = "pIC50"
value_observed = 8.40

[[record]]
molecule = "CC12CC(c3cn4cc(C(=O)Nc5cccn(C(F)F)c5=O)c(OC5CC(F)(F)C5)cc4n3)(CO1)C2 [Example 455]"
quantity_name = "pIC50"
value_observed = 8.92

[[record]]
molecule = "CCC(C)Oc1nc2nc(C34COC(C)(C3)C4)cn2cc1C(=O)Nc1cnn2cc(C)cnc12 (single isomer, unassigned) [Example 642]"
quantity_name = "pIC50"
value_observed = 8.89

